Biological target: Calmodulin-1 (Homo sapiens)
Assay: CALM1 binders on microarrays, EGTA buffer, profiling panel, biochemical, small-molecule microarray, Cy5-labelled CALM1 (AID 1111);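 note: labelled calmodulin applied in Tris saline Tween buffer holding calcium plus EGTA and DTT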
Details: Cy5-CALM1 binding fluorescence, higher = more signal
Assign class by composite z-score: not lower than -0.1 means Condition met; lower than -0.1 means Condition not met.

Use these answered entries as a reference point.
[
  {
    "Compound": "CO[C@@H]1C=CCC(=O)N2CCC[C@H]2C(=O)OC[C@@H](C)C(=O)OC[C@H]1C",
    "Group": "Condition not met"
  },
  {
    "Compound": "COc1cccc([C@H]2Oc3ccc(OC)cc3C(=NO[C@H](C)c3cn([C@H](CO)Cc4ccccc4)nn3)[C@@H]2O)c1",
    "Group": "Condition not met"
  }
]

Does the compound "Cn1c(=O)n2n(c1=O)[C@H]1[C@H](O)[C@@H]3O[C@@H]3C(=O)[C@H]1CC2" have recorded composite z-score that is -0.1 or more?
Condition not met

Does the compound "CC(C)=CCCC(C)=CCON=C1C[C@@H](O)[C@@H](O)[C@@H]2[C@@H]3C(=O)N(c4ccc(F)cc4F)C(=O)[C@@H]3CC[C@H]12" have recorded composite z-score that is -0.1 or more?
Condition met

Does the compound "COc1ccc(O[C@H]2C=C[C@@H](c3ccccc3)O[C@@H]2CON=C2[C@H]3CCn4c(=O)n(-c5ccccc5)c(=O)n4[C@H]3[C@H](O)[C@@H]3O[C@H]23)cc1" have recorded composite z-score that is -0.1 or more?
Condition met

Does the compound "COC(=O)CC=C[C@@H](C)[C@@H](C=NOCC[C@@H]1C=C[C@H](OC(C)=O)[C@@H](COC(C)=O)O1)OC" have recorded composite z-score that is -0.1 or more?
Condition not met

Does the compound "COC(=O)CC=C[C@@H](C)[C@@H](C=NO[C@@H](C)c1cn([C@H](CO)Cc2ccccc2)nn1)NS(=O)(=O)c1ccc(C)cc1" have recorded composite z-score that is -0.1 or more?
Condition not met

Does the compound "CC(C)(C)N1C(=O)[C@H]2[C@H]3[C@H](O)[C@H](O)CC(=NO[C@@H]4O[C@H](CO)[C@@H](O)[C@H](O)[C@H]4O)[C@H]3CC[C@H]2C1=O" have recorded composite z-score that is -0.1 or more?
Condition not met

Does the compound "CO[C@@H]1COC(=O)[C@H](CCSC)NC(=O)CC=C[C@@H](C)COC(=O)CCC[C@H]1C" have recorded composite z-score that is -0.1 or more?
Condition not met

###

Biological target: Calmodulin-1 (Homo sapiens) (UniProt P0DP23)
Assay: CALM1 binders on microarrays, EGTA buffer, profiling panel, biochemical, small-molecule microarray, Cy5-labelled CALM1 (AID 1111);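 note: labelled calmodulin applied in Tris saline Tween buffer holding calcium plus EGTA and DTT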
Details: Cy5-CALM1 binding fluorescence, higher = more signal
Please go through the items and note down their composite z-score.
One number for each entry.

[
  {
    "Molecule": "COc1ccc(O[C@H]2C=C[C@@H](c3ccccc3)O[C@@H]2COC(=O)CCC(C)=NOC(C)CN2CCCc3nc(C)c(C)cc32)cc1 (stereo not given in full)",
    "composite z-score": 0.0727
  }
]

Batch: composite z-score for all items listed.
1. CCOC(=O)CCN1C(=O)[C@H]2[C@H]3[C@H](O)[C@H](O)CC(=NNC(=O)OCc4ccccc4)[C@@H]3CC[C@H]2C1=O
2. CCN1C(=O)[C@H]2[C@H]3[C@H](O)[C@H](O)CC(=NOC[C@H]4O[C@H](c5ccccc5)C=C[C@@H]4Oc4ccc(OC)cc4)[C@@H]3CC[C@H]2C1=O

0.634
0.406

Batch: composite z-score for all items listed.
1. CO[C@H]1COC(=O)CC=C[C@H](C)[C@@H](OC)COC(=O)[C@@H](C)COC(=O)CC=C[C@@H]1C
2. COC(=O)CC=C[C@@H](C)[C@@H](C=NOCC[C@@H]1C=C[C@H](OC(C)=O)[C@@H](COC(C)=O)O1)NS(=O)(=O)c1ccc(C)cc1

-2.12
-0.879
